Where do these numbers come from? They come from patent US10499642B2.

Test system: Tetranychus urticae
experimental_protocol: Tetranychus urticae (two-spotted spider mite) bean leaf disc test
Assay type: in vivo
conditions_used: foliar, 192 h
# mortality at 200 ppm per record follows

- compound: "Cc1cc(C2=NO[C@@](c3cc(Cl)cc(Cl)c3)(C(F)(F)F)C2)ccc1C(=O)NC1CC(C(F)(F)F)=NO1 (some centres unmarked)"
  mortality at 200 ppm: "≥ 80%"
- compound: "Cc1cc(C2=NO[C@@](c3cc(Cl)c(F)c(Cl)c3)(C(F)(F)F)C2)ccc1C(=O)N(C=O)C1CC(C(F)(F)F)=NO1 (some centres unmarked)"
  mortality at 200 ppm: "≥ 80%"
- compound: "Cc1cc(C2=NO[C@@](c3cc(Cl)c(F)c(Cl)c3)(C(F)(F)F)C2)ccc1C(=O)NC1CC(C2CC2)=NO1 (some centres unmarked)"
  mortality at 200 ppm: "≥ 80%"
- compound: "Cc1cc(C2=NO[C@@](c3cc(Cl)c(F)c(Cl)c3)(C(F)(F)F)C2)ccc1C(=O)NC1CC(COC=O)=NO1 (some centres unmarked)"
  mortality at 200 ppm: "≥ 80%"
- compound: "CC1=NOC(NC(=O)c2ccc(C3=NO[C@@](c4cc(Cl)c(Cl)c(Cl)c4)(C(F)(F)F)C3)cc2Br)C1 (some centres unmarked)"
  mortality at 200 ppm: "≥ 80%"
- compound: "Cc1cc(C2=NO[C@@](c3cc(Cl)c(F)c(Cl)c3)(C(F)(F)F)C2)ccc1C(=O)NC1CC(OCC(C)C)=NO1 (some centres unmarked)"
  mortality at 200 ppm: "≥ 80%"
- compound: "Cc1cc(C2=NO[C@@](c3cc(Cl)c(F)c(Cl)c3)(C(F)(F)F)C2)ccc1C(=O)NC1CC(C(=O)O)=NO1 (some centres unmarked)"
  mortality at 200 ppm: "≥ 80%"
- compound: "COC1=NOC(N(C=O)C(=O)c2ccc(C3=NO[C@@](c4cc(Cl)cc(Cl)c4)(C(F)(F)F)C3)cc2C)C1 (some centres unmarked)"
  mortality at 200 ppm: "≥ 80%"
- compound: "O=CN(C(=O)c1ccc(C2=NO[C@@](c3cc(Cl)c(Cl)c(Cl)c3)(C(F)(F)F)C2)cc1Cl)C1CC(Cl)=NO1 (some centres unmarked)"
  mortality at 200 ppm: "≥ 80%"
- compound: "COCCOC1=NOC(NC(=O)c2ccc(C3=NO[C@@](c4cc(Cl)c(F)c(Cl)c4)(C(F)(F)F)C3)cc2C)C1 (some centres unmarked)"
  mortality at 200 ppm: "≥ 80%"
- compound: "COC1=NOC(NC(=O)c2ccc(C3=NO[C@@](c4cc(Cl)cc(Cl)c4)(C(F)(F)F)C3)cc2Cl)C1 (some centres unmarked)"
  mortality at 200 ppm: "≥ 80%"
- compound: "CCC1=NOC(NC(=O)c2ccc(C3=NO[C@@](c4cc(Cl)cc(Cl)c4)(C(F)(F)F)C3)cc2C)C1 (some centres unmarked)"
  mortality at 200 ppm: "≥ 80%"
- compound: "CC(=O)C1=NOC(N(C=O)C(=O)c2ccc(C3=NO[C@@](c4cc(Cl)c(F)c(Cl)c4)(C(F)(F)F)C3)cc2C)C1 (some centres unmarked)"
  mortality at 200 ppm: "≥ 80%"
- compound: "Cc1cc(C2=NO[C@@](c3cc(Cl)c(Cl)c(Cl)c3)(C(F)(F)F)C2)ccc1C(=O)NC1CC(Cl)=NO1 (some centres unmarked)"
  mortality at 200 ppm: "≥ 80%"
- compound: "CNC1=NOC(NC(=O)c2ccc(C3=NO[C@@](c4cc(Cl)c(F)c(Cl)c4)(C(F)(F)F)C3)cc2C)C1 (some centres unmarked)"
  mortality at 200 ppm: "≥ 80%"
- compound: "CC1=NOC(N(C=O)C(=O)c2ccc(C3=NO[C@@](c4cc(Cl)cc(C(F)(F)F)c4)(C(F)(F)F)C3)cc2C)C1 (some centres unmarked)"
  mortality at 200 ppm: "≥ 80%"
- compound: "CCOC1=NOC(NC(=O)c2ccc(C3=NO[C@@](c4cc(Cl)cc(C(F)(F)F)c4)(C(F)(F)F)C3)cc2C)C1 (some centres unmarked)"
  mortality at 200 ppm: "≥ 80%"
- compound: "Cc1cc(C2=NO[C@@](c3cc(Cl)c(Cl)c(Cl)c3)(C(F)(F)F)C2)ccc1C(=O)NC1CC(OS(C)(=O)=O)=NO1 (some centres unmarked)"
  mortality at 200 ppm: "≥ 80%"
- compound: "CCCCOC1=NOC(NC(=O)c2ccc(C3=NO[C@@](c4cc(Cl)c(F)c(Cl)c4)(C(F)(F)F)C3)cc2C)C1 (some centres unmarked)"
  mortality at 200 ppm: "≥ 80%"
- compound: "O=C(NC1CC(Cl)=NO1)c1ccc(C2=NO[C@@](c3cc(Cl)c(Cl)c(Cl)c3)(C(F)(F)F)C2)cc1Cl (some centres unmarked)"
  mortality at 200 ppm: "≥ 80%"
- compound: "CCOC1=NOC(NC(=O)c2ccc(C3=NO[C@@](c4cc(Cl)c(Cl)c(Cl)c4)(C(F)(F)F)C3)cc2Cl)C1 (some centres unmarked)"
  mortality at 200 ppm: "≥ 80%"
- compound: "Cc1cc(C2=NO[C@@](c3cc(Cl)cc(C(F)(F)F)c3)(C(F)(F)F)C2)ccc1C(=O)NC1CC(Cl)=NO1 (some centres unmarked)"
  mortality at 200 ppm: "≥ 80%"
- compound: "C=C(C)COC1=NOC(NC(=O)c2ccc(C3=NO[C@@](c4cc(Cl)c(F)c(Cl)c4)(C(F)(F)F)C3)cc2C)C1 (some centres unmarked)"
  mortality at 200 ppm: "≥ 80%"
- compound: "COC1=NOC(NC(=O)c2ccc(C3=NO[C@@](c4cc(Cl)cc(C(F)(F)F)c4)(C(F)(F)F)C3)cc2Cl)C1 (some centres unmarked)"
  mortality at 200 ppm: "≥ 80%"
- compound: "Cc1cc(C2=NO[C@@](c3cc(Cl)c(F)c(Cl)c3)(C(F)(F)F)C2)ccc1C(=O)NC1CC(OC(C)C)=NO1 (some centres unmarked)"
  mortality at 200 ppm: "≥ 80%"
- compound: "Cc1cc(C2=NO[C@@](c3cc(Cl)c(F)c(Cl)c3)(C(F)(F)F)C2)ccc1C(=O)N[C@@H]1CC(Br)=NO1 (single isomer, unassigned)"
  mortality at 200 ppm: "≥ 80%"
